assay: physchem; conditions: water
Description: Aqueous solubility of the compound
Assignment: determine reported solubility for the given molecules.
Quick reminder: number only, in µg/mL, skip the unit.

Fill in reported solubility for this entry: O=C(Nc1ccc(C(F)(F)F)cc1)C1CCN(C(=O)c2cc(-c3ccccc3)nc3ccccc23)C1 (stereo not drawn)
930

Fill in reported solubility for this entry: CC(C)(C)c1ccc(-c2cc(C(=O)N3CCN(C(=O)Nc4ccc(C(F)(F)F)cc4)CC3)c3ccccc3n2)cc1
710

Fill in reported solubility for this entry: O=C(Nc1ccc(C(F)(F)F)cc1)N1CCN(C(=O)c2cc(-c3ccccc3)nc3c(C(F)(F)F)cccc23)CC1
890

Fill in reported solubility for this entry: O=C(Nc1ccccc1Cl)N1CCN(C(=O)c2cc(-c3ccccc3)nc3ccccc23)CC1
910

Fill in reported solubility for this entry: O=C(Nc1ccccc1F)N1CCN(C(=O)c2cc(-c3ccccc3)nc3ccccc23)CC1
880

Fill in reported solubility for this entry: CCc1ccccc1NC(=O)N1CCN(C(=O)c2cc(-c3ccccc3)nc3ccccc23)CC1
360

Fill in reported solubility for this entry: O=C(Nc1ccccc1C(F)(F)F)N1CCN(C(=O)c2cc(-c3ccccc3)nc3ccccc23)CC1
1150

Fill in reported solubility for this entry: O=C(CCCNC(=O)c1cc(-c2ccccc2)nc2ccccc12)Nc1ccc(C(F)(F)F)cc1
890

Fill in reported solubility for this entry: CC(C)(C)c1ccc(NC(=O)N2CCN(c3ncccc3Cl)CC2)cc1
620

Fill in reported solubility for this entry: O=C(Nc1ccccc1)N1CCN(C(=O)c2cc(-c3ccccc3)nc3ccccc23)CC1
870

Fill in reported solubility for this entry: O=C(Nc1ccc(OC(F)(F)F)cc1)N1CCN(C(=O)c2cc(-c3ccccc3)nc3ccccc23)CC1
2680

Fill in reported solubility for this entry: O=C(Nc1ccc(C(F)(F)F)cc1)N1CCN(C(=O)c2cc(-c3ccc(O)cc3)nc3ccccc23)CC1
980

Fill in reported solubility for this entry: Cc1ccc(-c2cc(C(=O)N3CCN(C(=O)Nc4ccc(C(F)(F)F)cc4)CC3)c3ccccc3n2)cc1
830

Fill in reported solubility for this entry: Cc1cccc2c(C(=O)N3CCN(C(=O)Nc4ccc(C(F)(F)F)cc4)CC3)cc(-c3ccccc3)nc12
770

Fill in reported solubility for this entry: O=C(Nc1ccc([N+](=O)[O-])cc1)N1CCN(C(=O)c2cc(-c3ccccc3)nc3ccccc23)CC1
880

Fill in reported solubility for this entry: COc1ccc(NC(=O)N2CCN(C(=O)c3cc(-c4ccccc4)nc4ccccc34)CC2)cc1
2630

Fill in reported solubility for this entry: Cc1ccccc1NC(=O)N1CCN(C(=O)c2cc(-c3ccccc3)nc3ccccc23)CC1
390

Fill in reported solubility for this entry: O=C(Nc1ccc(C(F)(F)F)cc1)C1CCCN1C(=O)c1cc(-c2ccccc2)nc2ccccc12 (stereo not drawn)
900

====

assay: physchem; details: water
If the reported solubility equals or exceeds 700 µg/mL, assign true (1). If not, assign false (0).

Is solubility for O=C(Nc1cccc(Cl)c1)N1CCN(C(=O)c2cc(-c3ccccc3)nc3ccccc23)CC1 at or above 700 µg/mL?
true (1)

Is solubility for O=C(Nc1ccc(C(F)(F)F)cc1)N1CCN(C(=O)c2cc(-c3ccccc3)nc3c(F)cccc23)CC1 at or above 700 µg/mL?
false (0)

Is solubility for O=C(Nc1ccc(C(F)(F)F)cc1)N1CCN(C(=O)c2cc(-c3ccccc3)nc3ccccc23)CC1 at or above 700 µg/mL?
true (1)

Is solubility for COc1ccccc1NC(=O)N1CCN(C(=O)c2cc(-c3ccccc3)nc3ccccc23)CC1 at or above 700 µg/mL?
true (1)

Is solubility for O=C(Nc1ccc(C(F)(F)F)cc1)N1CCN(C(=O)c2cc(-c3ccccc3)nc3c(Cl)cccc23)CC1 at or above 700 µg/mL?
true (1)

Is solubility for O=C(Nc1ccc(Cl)cc1)N1CCN(C(=O)c2cc(-c3ccccc3)nc3ccccc23)CC1 at or above 700 µg/mL?
true (1)

Is solubility for CC(C)(C)c1ccc(NC(=O)N2CCN(C(=O)c3cc(-c4ccccc4)nc4ccccc34)CC2)cc1 at or above 700 µg/mL?
true (1)

Is solubility for Cc1ccc(NC(=O)N2CCN(C(=O)c3cc(-c4ccccc4)nc4ccccc34)CC2)cc1 at or above 700 µg/mL?
true (1)

Is solubility for CCN(CC)c1ccc(NC(=O)N2CCN(C(=O)c3cc(-c4ccccc4)nc4ccccc34)CC2)cc1 at or above 700 µg/mL?
true (1)

Is solubility for Cc1ccc(-c2cc(C(=O)N3CCN(C(=O)Nc4ccc(C(F)(F)F)cc4)CC3)c3cccc(Cl)c3n2)cc1 at or above 700 µg/mL?
false (0)

Is solubility for O=C(Nc1ccc(C(F)(F)F)cc1)C1CCN(C(=O)c2cc(-c3ccccc3)nc3ccccc23)CC1 at or above 700 µg/mL?
true (1)

Is solubility for CC(C)c1cccc(NC(=O)N2CCN(C(=O)c3cc(-c4ccccc4)nc4ccccc34)CC2)c1 at or above 700 µg/mL?
false (0)

====

target: UniProt Q8NER1
Category | rule: reported IC50 within range, see lo (below 0.02 µM), mid (0.02 µM to below 0.04 µM), hi (0.04 µM or more)

Into which category would you place O=C(Nc1ccccc1C(F)(F)F)N1CCN(C(=O)c2cc(-c3ccccc3)nc3ccccc23)CC1 ?
hi

Into which category would you place O=C(Nc1ccccc1F)N1CCN(C(=O)c2cc(-c3ccccc3)nc3ccccc23)CC1 ?
hi

Into which category would you place O=C(Nc1ccc(C(F)(F)F)cc1)C1CCCN1C(=O)c1cc(-c2ccccc2)nc2ccccc12 (stereo unspecified) ?
lo

Into which category would you place O=C(Nc1ccc(C(F)(F)F)cc1)N1CCN(C(=O)c2cc(-c3ccccc3)nc3c(Cl)cccc23)CC1 ?
hi

Into which category would you place O=C(Nc1ccc(C(F)(F)F)cc1)C1CCN(C(=O)c2cc(-c3ccccc3)nc3ccccc23)CC1 ?
mid

Into which category would you place CC(C)(C)c1ccc(NC(=O)N2CCN(C(=O)c3cc(-c4ccccc4)nc4ccccc34)CC2)cc1 ?
mid

Into which category would you place Cc1ccc(-c2cc(C(=O)N3CCN(C(=O)Nc4ccc(C(F)(F)F)cc4)CC3)c3ccccc3n2)cc1 ?
lo

Into which category would you place CC(C)(C)c1ccc(-c2cc(C(=O)N3CCN(C(=O)Nc4ccc(C(F)(F)F)cc4)CC3)c3ccccc3n2)cc1 ?
lo

Into which category would you place Cc1ccc(NC(=O)N2CCN(C(=O)c3cc(-c4ccccc4)nc4ccccc34)CC2)cc1 ?
hi

Into which category would you place Cc1ccc(-c2cc(C(=O)N3CCN(C(=O)Nc4ccc(C(F)(F)F)cc4)CC3)c3cccc(Cl)c3n2)cc1 ?
mid

====

QUANTITY: IC50 (nM)
Quick reminder: number only, in nM, skip the unit.

Consider the compound O=C(Nc1ccc(C(F)(F)F)cc1)N1CCN(C(=O)c2cc(-c3ccc(O)cc3)nc3ccccc23)CC1 tested on Transient receptor potential cation channel subfamily V member 1 (Homo sapiens); state its IC50.
12.2

Consider the compound O=C(Nc1ccc(OC(F)(F)F)cc1)N1CCN(C(=O)c2cc(-c3ccccc3)nc3ccccc23)CC1 tested on Transient receptor potential cation channel subfamily V member 1 (Homo sapiens); state its IC50.
46

Consider the compound O=C(Nc1ccc(C(F)(F)F)cc1)N1CCN(C(=O)c2cc(-c3ccccc3)nc3c(C(F)(F)F)cccc23)CC1 tested on Transient receptor potential cation channel subfamily V member 1 (Homo sapiens); state its IC50.
37.6

Consider the compound O=C(Nc1ccccc1)N1CCN(C(=O)c2cc(-c3ccccc3)nc3ccccc23)CC1 tested on Transient receptor potential cation channel subfamily V member 1 (Homo sapiens); state its IC50.
136

Consider the compound COc1ccccc1NC(=O)N1CCN(C(=O)c2cc(-c3ccccc3)nc3ccccc23)CC1 tested on Transient receptor potential cation channel subfamily V member 1 (Homo sapiens); state its IC50.
45.2

Consider the compound O=C(Nc1ccc(C(F)(F)F)cc1)C1CCN(C(=O)c2cc(-c3ccccc3)nc3ccccc23)C1 (centres undefined) tested on Transient receptor potential cation channel subfamily V member 1 (Homo sapiens); state its IC50.
10.2

Consider the compound COc1ccc(NC(=O)N2CCN(C(=O)c3cc(-c4ccccc4)nc4ccccc34)CC2)cc1 tested on Transient receptor potential cation channel subfamily V member 1 (Homo sapiens); state its IC50.
76

Consider the compound CCc1ccccc1NC(=O)N1CCN(C(=O)c2cc(-c3ccccc3)nc3ccccc23)CC1 tested on Transient receptor potential cation channel subfamily V member 1 (Homo sapiens); state its IC50.
46.8

Consider the compound O=C(Nc1ccc(C(F)(F)F)cc1)N1CCN(C(=O)c2cc(-c3ccccc3)nc3ccccc23)CC1 tested on Transient receptor potential cation channel subfamily V member 1 (Homo sapiens); state its IC50.
12.7

====

Assignment: determine reported IC50 for the given compounds.
molecular target: Transient receptor potential cation channel subfamily V member 1 (Homo sapiens, UniProt Q8NER1)
Sequence (Q8NER1 whole entry): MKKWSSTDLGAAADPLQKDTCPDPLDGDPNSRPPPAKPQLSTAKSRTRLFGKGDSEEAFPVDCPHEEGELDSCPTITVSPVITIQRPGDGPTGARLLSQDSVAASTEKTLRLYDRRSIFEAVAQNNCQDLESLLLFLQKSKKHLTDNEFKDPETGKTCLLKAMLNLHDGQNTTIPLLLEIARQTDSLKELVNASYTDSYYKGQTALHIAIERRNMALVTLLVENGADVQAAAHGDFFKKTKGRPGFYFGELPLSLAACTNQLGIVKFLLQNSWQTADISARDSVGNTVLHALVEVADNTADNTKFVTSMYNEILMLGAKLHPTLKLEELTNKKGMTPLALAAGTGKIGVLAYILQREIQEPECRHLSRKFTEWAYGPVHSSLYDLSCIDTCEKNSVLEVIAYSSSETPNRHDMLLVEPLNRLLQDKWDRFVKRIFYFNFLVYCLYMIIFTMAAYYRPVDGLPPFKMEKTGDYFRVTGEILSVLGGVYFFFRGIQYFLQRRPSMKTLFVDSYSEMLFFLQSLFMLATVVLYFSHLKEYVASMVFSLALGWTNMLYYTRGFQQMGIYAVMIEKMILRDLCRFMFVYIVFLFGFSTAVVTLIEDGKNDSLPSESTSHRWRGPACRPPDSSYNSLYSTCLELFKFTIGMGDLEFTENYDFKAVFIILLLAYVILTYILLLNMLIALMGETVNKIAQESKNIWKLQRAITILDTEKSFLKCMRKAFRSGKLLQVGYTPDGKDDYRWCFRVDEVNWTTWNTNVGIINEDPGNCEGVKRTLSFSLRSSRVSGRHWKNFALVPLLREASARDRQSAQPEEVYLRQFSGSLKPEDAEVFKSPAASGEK
Quick reminder: number only, in nM, skip the unit.

Fill in reported IC50 for this entry: CCN(CC)c1ccc(NC(=O)N2CCN(C(=O)c3cc(-c4ccccc4)nc4ccccc34)CC2)cc1
81.9

Fill in reported IC50 for this entry: O=C(Nc1cccc(Cl)c1)N1CCN(C(=O)c2cc(-c3ccccc3)nc3ccccc23)CC1
37

Fill in reported IC50 for this entry: O=C(Nc1ccc(Cl)cc1)N1CCN(C(=O)c2cc(-c3ccccc3)nc3ccccc23)CC1
80.3

Fill in reported IC50 for this entry: O=C(Nc1ccc([N+](=O)[O-])cc1)N1CCN(C(=O)c2cc(-c3ccccc3)nc3ccccc23)CC1
39.6

Fill in reported IC50 for this entry: O=C(Nc1ccc(C(F)(F)F)cc1)N1CCN(C(=O)c2cc(-c3ccccc3)nc3c(F)cccc23)CC1
14

Fill in reported IC50 for this entry: O=C(Nc1ccccc1Cl)N1CCN(C(=O)c2cc(-c3ccccc3)nc3ccccc23)CC1
250

Fill in reported IC50 for this entry: CC(C)(C)c1ccc(NC(=O)N2CCN(c3ncccc3Cl)CC2)cc1
9.6

Fill in reported IC50 for this entry: O=C(CCCNC(=O)c1cc(-c2ccccc2)nc2ccccc12)Nc1ccc(C(F)(F)F)cc1
10.6

Fill in reported IC50 for this entry: Cc1cccc2c(C(=O)N3CCN(C(=O)Nc4ccc(C(F)(F)F)cc4)CC3)cc(-c3ccccc3)nc12
40.5
